The reported numbers originate from patent US20150064204A1.

study.system: T1, human GITR (Glucocorticoid-induced TNFR-related gene, TNFRSF18) (human, UniProt Q9Y5U5 26-241)
T1 construct: also called AITR; huGITR
T1 sequence: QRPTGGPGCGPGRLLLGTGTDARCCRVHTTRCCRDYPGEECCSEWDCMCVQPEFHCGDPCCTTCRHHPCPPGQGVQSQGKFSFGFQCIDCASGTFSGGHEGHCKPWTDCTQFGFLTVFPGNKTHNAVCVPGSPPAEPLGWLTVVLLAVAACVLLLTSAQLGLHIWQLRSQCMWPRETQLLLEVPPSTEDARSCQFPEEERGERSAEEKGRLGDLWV
protocol: flow cytometry (MFI), antibody titration on anti-CD3-activated primary human T cells (CD25+CD4+)
property.measured: EC50 (µg/mL)
The reply should contain only the number, in µg/mL.

Consider the following illustrative entries.
| binder | EC50 (µg/mL) |
| --- | --- |
| 49E2v1 (antibody, human IgG1, lambda, V domains shown, tied to 49E2v1 by Ab23 / SS-12516; also called Ab23; SS-12516) VH: QVQLVESGGGVVQPGRSLRLSCAASGFTFSSYGMHWVRQAPGKGLEWVAVIWSDGNNKYYEDSVKGRFTISRDSSKNTLFLQMNSLRAEDTAVYYCARDTATPFDYWGQGTLVTVSS VL: QSALTQPASVSGSPGQSITISCTGTSSDVGIYNLVSWYQQHPGKAPKLMIHEVSKRPSGVSNRFSGSKSGNTASLTISGLQAEDEADYYCASYAGISTWVFGGGTKLTVLG | 0.318 |
| 5H7 (antibody, human IgG1, kappa, V domains shown, Fully human parental antibody; also called Ab17; SS-10943) VH: QVQLQESGPGLVKPSQTLSLTCTVSGGSISSGGYFWSWIRQHPGKGLEWIGYIYYSGTTYYNPSLKSRVTISIDTSKNHFSLKLSSVTAADTAVYYCARDLFYYDSSGPRGFDPWGQGTLVTVSS VL: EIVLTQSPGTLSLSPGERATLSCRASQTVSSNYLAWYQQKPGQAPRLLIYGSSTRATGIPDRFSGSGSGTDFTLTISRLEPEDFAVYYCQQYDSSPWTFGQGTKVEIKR | 0.164 |
| 34G4 (antibody, human IgG1, kappa, V domains shown, Fully human parental antibody; also called Ab4; SS-12415) VH: QVQLVESGGGVVQPGRSLRLSCAASGFTFSSYGMHWVRQAPGKGLEWVAVIWYEGSNKYYADSVKGRFTISRDNSKNTLYLQMNSLRAEDTAVYYCARGGQLGYYYYYGMDVWGQGTTVTVSS VL: DIQMTQSPSSLSASVGDRVTITCRASQGIRNDLGWYQQKPGKAPKRLIYDASSLQSGVPSRFSGSGSGTDFTLTISSLQPEDFATYYCLQLNSYPWTFGQGTKVEIKR | 0.038 |
| 41E11 (antibody, human IgG1, kappa, V domains shown, Fully human parental antibody; also called Ab6; SS-12417) VH: QVQVVESGGGVVQPGRSLRLSCAASGFTFSSYGMYWVRQAPGKGLEWVAVIWYEGSNKYYADSVRGRFTISRDNSKNTLYLQMNSLRAEDTALYYCARGGQLGKDYYSGMDVWGQGTTVTVSS VL: DIQMTQSPSSLSASVGDRVTITCRASQVIRNDLGWYQQKPGKAPKRLIYAASSLQSGVPSRFSGSGSGTEFTLTISSLQPEDFATYYCLQHNSYPLTFGGGTKVEIKR | 0.048 |
| 46E11 (antibody, human IgG1, kappa, V domains shown, Fully human parental antibody; also called Ab11; SS-12421) VH: QVQLVESGGGVVQPGRSLRLSCAASGFTFSSYGMHWVRQAPGKGLEWVAVIWYAGSNKYYADSVKGRFTISRDNSKNTLYLQMNSLRAEDTAVYYCARGDILTGYSLYYGMDVWGQGTTVTVSS VL: DIQMTQSPSSLSASVGDRVTITCRASQGIRNDLGWYQQKPGKAPKRLIYAASSLQSGVPSRFSGSGSGAEFTLTISSLQPEDFATYYCLQHNSYPWTFGQGTKVEIKR | 0.03 |

Moving on to another binder below.
Request: # query: EC50 of entry 7A10 (antibody, human IgG1, kappa, V domains shown, Fully human parental antibody; also called Ab18; SS-10944) VH: QVQLVESGGGVVQPGRSLRLSCAASGFTFSSYGMHWVRQAPGKGLEWMAVIWYVGSNKYYADSVKGRFTISRDNSKNTLYLQMNSLSAEDTAVYYCARGGELGRDYYSGMDVWGQGTTVTVSS VL: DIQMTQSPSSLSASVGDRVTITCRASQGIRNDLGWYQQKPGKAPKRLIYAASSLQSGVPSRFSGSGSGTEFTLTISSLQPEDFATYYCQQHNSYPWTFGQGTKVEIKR
Result: 0.027
